Where do these numbers come from? They come from PubChem BioAssay (NCI).

- Tested on: SF-295 CNS
- Assay Procedure: NCI-60 one-dose screen, 48 h (100 = growth as untreated, 0 = no growth, -100 = all killed)
- Particulars: 10 µM unless noted
This is part of a sample that, as a whole, favours compounds with a hit. Of some 83,000 tested, about 20% had one in any assay.
Recorded growth by entry
Readout Label: growth (%)

• CN(C)CC(C)(CN(C)C)C(=O)/C=C/c1c(Cl)cccc1Cl = 78.2
• CCCCCCC1N=C(N)N=C(N)N1c1cccc(Cl)c1 (stereo not drawn) = 13.8
• COc1cccc2c1C(=O)c1c(O)c3c(c(O)c1C2=O)C[C@@](O)(C(=O)CO)C[C@@H]3OC1CC(OC(C)=O)C(OC(C)=O)C(C)O1 (stereo partly drawn) = -30.2
• O=C1c2ccccc2C(=O)c2c(O)c(Cl)cc(O)c21 = 113
• NC(=S)N/N=C\c1nccc2c(C(F)(F)F)cccc12 = 7.98
• Cc1ccc(Nc2ccc(O)c3c2C(=O)c2c(O)ccc(Nc4ccc(C)cc4)c2C3=O)cc1 = 104
• O=C(NNc1ccccc1)OCc1ccccc1 = 58
• O=C(/C(Cl)=N/O)c1ccc(-c2ccccc2)cc1 = 104
• CN(Cc1ccccc1)c1ccc(SC#N)cc1 = 95.4
• O=[N+]([O-])C=C(c1ccccc1)c1ccccc1 = 89.3
• Cc1ccc(NC2=CC(=O)C(=O)c3ccccc32)cc1 = -22.9
• CCOc1ccc(C(C[N+](=O)[O-])Sc2ccccc2N)cc1 (stereo not drawn) = 40.4
• O=C1/C(=C/c2ccccn2)CCc2ccccc21 = 96.8
• NC(=Nc1nc(-c2ccccn2)cc2ccccc12)c1ccccn1 = 17.9
• O=C1C(=O)c2cccnc2-c2ncccc21 = 2.62
• CCN(CC)CC(O)c1cc(-c2ccc(Cl)cc2)nc2cc(Cl)ccc12 (stereo not drawn) = 31.7
• O=C1/C(=C/c2ccccc2)CCC/C1=C\c1ccccc1 = 91.8
• S=C(SSC(=S)N1CCOCC1)N1CCOCC1 = 107
• COc1ccc(C(OCC2OC(n3ccc(NC(=O)c4ccccc4)nc3=O)C(O)C2O)(c2ccccc2)c2ccccc2)cc1 (stereo not drawn) = 41.7
• NCCCN(CCCN)CCCNCc1c2ccccc2c(CNCCCN(CCCN)CCCN)c2ccccc12 = 100
• O=C1/C(=C\c2ccc([N+](=O)[O-])cc2)CS(=O)(=O)C/C1=C/c1ccc([N+](=O)[O-])cc1 = -16
• Clc1ccc(Cc2nc3ccccc3s2)cc1 = 91.5
• CN(C)c1ccc(/C=C/c2ccnc3ccccc23)cc1 = 31.7
